Recorded values, source ChEMBL document CHEMBL5724914.

measurement.conditions: human gut metagenome, 24 h, 2 µM; further: call rule not given here
measured.quantity: Bacterial Biotransformation

Some solved entries appear below for comparison.
compound	recorded.value
COc1ccccc1OCC(O)CN1CCN(CC(=O)Nc2c(C)cccc2C)CC1 (stereo not given)	Compound NOT metabolized
CCCCC(=O)N(Cc1ccc(-c2ccccc2-c2nnn[nH]2)cc1)[C@H](C(=O)O)C(C)C	Compound NOT metabolized
CNC(=C[N+](=O)[O-])NCCSCc1csc(CN(C)C)n1	Compound NOT metabolized
Br.CN(C)CCCC1(c2ccc(F)cc2)OCc2cc(C#N)ccc21 (stereo not given) [CITALOPRAM HYDROBROMIDE]	Compound metabolized
CCC(COC(=O)c1cc(OC)c(OC)c(OC)c1)(c1ccccc1)N(C)C.O=C(O)/C=C\C(=O)O (stereo not given)	Compound metabolized
OCCOCCN1CCN(C2=Nc3ccccc3Sc3ccccc32)CC1	Compound NOT metabolized
CC(C)N(CCC(C(N)=O)(c1ccccc1)c1ccccn1)C(C)C.O=P(O)(O)O (stereo not given) [DISOPYRAMIDE PHOSPHATE]	Compound NOT metabolized
O=C(CCCN1CCC(O)(c2ccc(Cl)cc2)CC1)c1ccc(F)cc1	Compound NOT metabolized
CCN(CC)CCOCCOC(=O)C1(c2ccccc2)CCCC1.O=C(O)CC(O)(CC(=O)O)C(=O)O [CARBETAPENTANE CITRATE]	Compound metabolized
CN1CCN(CC/C=C2/c3ccccc3Sc3ccc(S(=O)(=O)N(C)C)cc32)CC1	Compound metabolized

Entry CC(O)(CS(=O)(=O)c1ccc(F)cc1)C(=O)Nc1ccc(C#N)c(C(F)(F)F)c1 (stereo not given) [BICALUTAMIDE] : reported Bacterial Biotransformation = ?
Compound NOT metabolized

Another compound to look at: `CN1CCc2cccc3c2[C@H]1Cc1ccc(O)c(O)c1-3`
Compound NOT metabolized

Another compound to look at: `COC(=O)Nc1nc2ccc(C(=O)c3ccccc3)cc2[nH]1`
Compound metabolized

Another compound to look at: O=P(O)(O)O.c1ccc(CN(CC2=NCCN2)c2ccccc2)cc1 [ANTAZOLINE PHOSPHATE]
Compound metabolized

Another compound to look at: CC(C)(Oc1ccc(CCNC(=O)c2ccc(Cl)cc2)cc1)C(=O)O [BEZAFIBRATE]
Compound NOT metabolized

Another compound to look at: `CC(C)c1c(C(=O)Nc2ccccc2)c(-c2ccccc2)c(-c2ccc(F)cc2)n1CC[C@@H](O)C[C@@H](O)CC(=O)O`
Compound metabolized

Another compound to look at: CC(C)OC(=O)C(C)(C)Oc1ccc(C(=O)c2ccc(Cl)cc2)cc1 [FENOFIBRATE]
Compound metabolized

Another compound to look at: CNS(=O)(=O)Cc1ccc2[nH]cc(CCN(C)C)c2c1.O=C(O)CCC(=O)O [SUMATRIPTAN SUCCINATE]
Compound NOT metabolized

Another compound to look at: O=C(NCc1ccccc1)OCCO [BURAMATE]
Compound NOT metabolized

Another compound to look at: `O=C1[C@H](CC[C@H](O)c2ccc(F)cc2)[C@@H](c2ccc(O)cc2)N1c1ccc(F)cc1`
Compound NOT metabolized

Another compound to look at: COc1c(C)c2c(c(O)c1C/C=C(\C)CCC(=O)OCCN1CCOCC1)C(=O)OC2 [MYCOPHENOLATE MOFETIL]
Compound metabolized

Another compound to look at: CCN(CC)CC#CCOC(=O)C(O)(c1ccccc1)C1CCCCC1.Cl (stereo not given) [OXYBUTYNIN CHLORIDE]
Compound metabolized

Another compound to look at: CC(CN1c2ccccc2Sc2ccccc21)N(C)C (stereo not given)
Compound NOT metabolized
